# Test system: human lymphoblastoid TK6 cells
# assay_notes: Kinetochore analysis of micronuclei
# Type: cell-based
# particulars: of 200 micronuclei; 4 h; CBG 30 µM, CBD 15 µM, CBC 15 µM, CBDV 40 µM, CBN 15 µM, MMS 40 µM, vincristine 0.0121 µM; one experiment
# Experimental: For kinetochore analysis, cells were treated for 4 h with CBG 30 µM, CBD 15 µM, CBC 15 µM, CBDV 40 µM, and CBN 15 µM. The positive controls were MMS 40 µM, and vincristine sulphate 0.0121 µM; the solvent control was DMSO. […] Per compound, 200 micronuclei were evaluated for kinetochore signal presence (Fig. 3). […] The slides used in kinetochore evaluation were also evaluated for the number of induced micronuclei as described in the above paragraph cytokinesis‑block micronucleus assay.
quantity_measured: Kinetochore (+) MNi, %

compound | observed
CCCCCc1cc(O)c2c(c1)OC(C)(CCC=C(C)C)C=C2 (stereo not shown) | 48.5%
CCCCCc1cc(O)c2c(c1)OC(C)(C)c1ccc(C)cc1-2 | 46%
COS(C)(=O)=O [MMS, methyl methane sulfonate, reference compound] | 38%
C=C(C)[C@@H]1CCC(C)=C[C@H]1c1c(O)cc(CCCCC)cc1O | 47%

====

Entries and their measured Kinetochore (+) induced MNi follow.
# Tested on: human lymphoblastoid TK6 cells
# assay_notes: Kinetochore analysis of micronuclei
# Assay type: cell-based
# particulars: treatment – control (basal level of micronuclei subtracted); 4 h; same concentrations
quantity_measured: Kinetochore (+) induced MNi (%)

molecule | observed
CCCCCc1cc(O)c2c(c1)OC(C)(CCC=C(C)C)C=C2 (stereo not shown) | 69.7
CCCCCc1cc(O)c2c(c1)OC(C)(C)c1ccc(C)cc1-2 | 63.3
COS(C)(=O)=O [MMS, methyl methane sulfonate, reference compound] | 41.9
C=C(C)[C@@H]1CCC(C)=C[C@H]1c1c(O)cc(CCCCC)cc1O | 63.7

Reference for the values: paper PMC11402852
